Reference source: patent US4670435A

test_description: Therapeutic index: quotient of acute toxic dose to antiarrhythmic ED 50%
Parameters: species or system Sprague-Dawley rats
test_conditions: in vivo; Table 2; rat, oral administration; measure of therapeutic index; read-out: Q (quotient of acute toxic dose to antiarrhythmic ED 50%)

molecule	selectivity ratio
C=C[C@H]1C[N@@]2CC[C@H]1C[C@@H]2[C@@H](O)c1ccnc2ccc(OC)cc12 [Quinidine, quinidine, reference compound]	11
CNCC(C)(O)CC1c2ccccc2CCc2ccccc21 (stereo not drawn) [Example 3]	32
CC(O)(CNC(C)(C)C)CC1c2ccccc2CCc2ccccc21 (stereo not drawn) [Example 4]	33
